The reported numbers originate from the NIST ThermoML archive (doi:10.1016/j.fluid.2009.01.011).

- Protocol Text: activity coefficient (dimensionless); of the first substance listed, at infinite dilution; xn = mol fraction of the nth substance listed
- Condition Notes: 348.15 K; Liquid; Chromatography; x1 = 0
Reported activity coefficient values follow for various molecules
// keep it numeric: no unit symbol after the value

Example entries and their recorded answers appear below.
• O [water] + CCCC[N+]1(C)CCCC1.O=S(=O)([O-])C(F)(F)F = 0.765
• C=CCCC [1-pentene] + CCCC[N+]1(C)CCCC1.O=S(=O)([O-])C(F)(F)F = 12.8

Query string: Name the reported activity coefficient value associated with the molecule Cc1ccc(C)cc1 [1,4-dimethylbenzene] + CCCC[N+]1(C)CCCC1.O=S(=O)([O-])C(F)(F)F
Result string: 3.43
